Hello, the source for this data is ChEMBL document CHEMBL1134770, in case you need it.

A short record of pIC50 observed with cGMP-dependent 3',5'-cyclic phosphodiesterase (Bos taurus, UniProt P14099) follows.
Sequence (P14099 whole entry): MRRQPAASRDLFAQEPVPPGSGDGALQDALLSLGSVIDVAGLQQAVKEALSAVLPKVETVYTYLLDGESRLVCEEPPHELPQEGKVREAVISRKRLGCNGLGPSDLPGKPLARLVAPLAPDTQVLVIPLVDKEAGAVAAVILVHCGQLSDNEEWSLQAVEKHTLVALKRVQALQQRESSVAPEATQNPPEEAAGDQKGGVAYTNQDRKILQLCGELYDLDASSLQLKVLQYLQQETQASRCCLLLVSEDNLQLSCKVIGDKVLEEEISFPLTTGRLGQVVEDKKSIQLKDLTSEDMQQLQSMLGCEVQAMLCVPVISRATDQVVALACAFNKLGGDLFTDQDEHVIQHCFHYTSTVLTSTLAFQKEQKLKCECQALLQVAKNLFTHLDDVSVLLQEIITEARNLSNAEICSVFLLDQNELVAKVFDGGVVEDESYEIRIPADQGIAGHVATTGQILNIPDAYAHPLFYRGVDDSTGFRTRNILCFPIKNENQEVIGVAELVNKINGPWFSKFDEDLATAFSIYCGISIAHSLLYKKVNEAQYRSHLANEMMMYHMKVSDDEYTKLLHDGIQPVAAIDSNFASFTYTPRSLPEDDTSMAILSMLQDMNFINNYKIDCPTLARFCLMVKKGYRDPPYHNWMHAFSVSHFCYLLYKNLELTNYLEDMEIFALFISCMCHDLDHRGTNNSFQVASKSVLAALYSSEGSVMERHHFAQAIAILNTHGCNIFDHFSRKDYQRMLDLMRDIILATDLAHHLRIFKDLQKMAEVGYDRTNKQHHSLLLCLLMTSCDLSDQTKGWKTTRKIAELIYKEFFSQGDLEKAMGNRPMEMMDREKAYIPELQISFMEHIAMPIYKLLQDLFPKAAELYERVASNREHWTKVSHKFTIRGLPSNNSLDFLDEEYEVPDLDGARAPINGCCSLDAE
pIC50: −log10 of the molar value.

Please tell me: pIC50 of `COC(=O)c1c(-c2cc(OC)c(OC)c(OC)c2)c2ccc(OCc3ccccn3)cc2c(=O)n1-c1ccc(N)cc1.Cl.Cl` , system cGMP-dependent 3',5'-cyclic phosphodiesterase (Bos taurus, UniProt P14099)? < 5.00

Others:
Please tell me: pIC50 of `CCCc1nn(C)c2c(=O)[nH]c(-c3cc(S(=O)(=O)N4CCN(C)CC4)ccc3OCC)nc12` , system cGMP-dependent 3',5'-cyclic phosphodiesterase (Bos taurus, UniProt P14099)? < 5.00

###

target: cGMP-specific 3',5'-cyclic phosphodiesterase (Canis lupus familiaris, UniProt O77746)
pIC50: −log10 of the molar value.
metricName: pIC50

// below: answered compounds
Given `COC(=O)c1c(-c2cc(OC)c(OC)c(OC)c2)c2cc(OC)c(OC)cc2c(=O)n1C1CCCCC1` , state its recorded pIC50. 6.64

Given `COC(=O)c1c(-c2cc(OC)c(OC)c(OC)c2)c2cc(OC)c(OC)cc2c(=O)n1N1CCOCC1` , state its recorded pIC50. 7.59

A: COC(=O)c1c(-c2cc(OC)c(OC)c(OC)c2)c2cc(OC)c(OC)cc2c(=O)n1-c1ccccc1
B: COC(=O)c1c(-c2cc(OC)c(OC)c(OC)c2)c2cc(OC)c(OC)cc2c(=O)n1Cc1ccccc1
For the two items A and B , which reports the higher pIC50 value? Refer to your chosen entry by its label in the reply. A
(A: 7.52, B: 6.42)

###

test: Relaxant effect on isolated rabbit corpus cavernosum; type: functional, tissue-based, Oryctolagus cuniculus; conditions: target entry is the homologue from another species
metricName: EC30 (nM)

// below: answered compounds
Given `COC(=O)c1c(-c2cc(OC)c(OC)c(OC)c2)c2ccc(OCc3ccccn3)cc2c(=O)n1-c1ccc(N)cc1.Cl.Cl` , state its recorded EC30. 7.9

Given `COC(=O)c1c(-c2cc(OC)c(C)c(OC)c2)c2ccc(OCc3ccccn3)cc2c(=O)n1-c1ccc(N)cc1.Cl.Cl` , state its recorded EC30. 37

Given `COC(=O)c1c(-c2cc(OC)c(OC)c(OC)c2)c2ccc(OCc3ccncc3)cc2c(=O)n1-c1ccc(N)cc1.Cl.Cl` , state its recorded EC30. 12

1: COC(=O)c1c(-c2cc(OC)c(OC)c(OC)c2)c2ccc(OCc3cccnc3)cc2c(=O)n1-c1ccc(N)cc1.Cl.Cl
2: COC(=O)c1c(-c2cc(OC)c(OC)c(OC)c2)c2ccc(OCc3ccccc3)cc2c(=O)n1-c1ccc(N)cc1.Cl
3: COC(=O)c1c(-c2cc(OC)c(Br)c(OC)c2)c2ccc(OCc3ccccn3)cc2c(=O)n1-c1ccc(N)cc1.Cl.Cl
Rank items: key EC30, increasing. Please, when replying, give the labels in the order that was requested. 1, 3, 2

###

A short record of IC50 observed with cGMP-specific 3',5'-cyclic phosphodiesterase (Canis lupus familiaris) follows.
metricName: IC50 (nM)

A: COC(=O)c1c(-c2cc(OC)c(OC)c(OC)c2)c2ccc(OC)cc2c(=O)n1-c1ccc(N)cc1.Cl
B: COC(=O)c1c(-c2cc(O)c(OC)c(OC)c2)c2ccc(OCc3ccccn3)cc2c(=O)n1-c1ccc(N)cc1.Cl.Cl
C: COC(=O)c1c(-c2cc(OC)c(OC)c(OC)c2)c2ccc(OCc3ccccc3)cc2c(=O)n1-c1ccc(N)cc1.Cl
D: COC(=O)c1nc(O)c2cc(OC)c(OC)cc2c1-c1cc(OC)c(OC)c(OC)c1
Sort the list above on IC50 in ascending fashion. Please, when replying, give the labels in the order that was requested. C, B, A, D
(C: 1.2 nM, B: 8.5 nM, A: 20 nM, D: 900 nM)
